These measurements were taken from BindingDB's records for doi:10.1016/j.chembiol.2004.03.022.

Molecular target: Cyclin-dependent kinase 2 (Homo sapiens)
pIC50: −log10 of the molar value.

Compound: O=C1c2ccccc2-[n+]2ccc3c([nH]c4ccccc43)c21
pIC50: < 4.30
--
Compound: COc1ccc(OC)c2c(=S)c3ccccc3[nH]c12 [NSC625987]
pIC50: < 4.00
